Test system: P. mirabilis
Assay remarks: In vitro MIC, agar dilution
Assay type: cell-based
Run parameters: Proteus mirabilis
Structures can show the parent of a compound that is named as a salt.
The label is true (1) for MIC90 below 0.06 µg/mL and false (0) for MIC90 equal to or exceeding 0.06 µg/mL.

• O=C(O)c1cn(C2CC2)c2cc(N3CCNCC3)c(F)cc2c1=O = true (1)
• C[C@@H]1CN(c2c(F)c(N)c3c(=O)c(C(=O)O)cn(C4CC4)c3c2F)C[C@H](C)N1 = false (0)
• N[C@@H]1[C@H]2CN(c3nc4c(cc3F)c(=O)c(C(=O)O)cn4-c3ccc(F)cc3F)C[C@@H]12 = false (0)
• Cc1c(N2C[C@@H]3CCCN[C@@H]3C2)c(F)cn2c(=O)c(C(=O)O)cc(C3CC3)c12 [Example 4, hydrochloride] = false (0)

# input for lookup
Is it true that MIC90 reported for CN[C@@H]1CN(c2c(F)cn3c(=O)c(C(=O)O)cc(C4CC4)c3c2C)CC12CC2 [Example 1, hydrochloride] is less than 0.06 µg/mL?
false (0)

* * *

Measured MIC90 (S. aureus (CiproS))
Where a name gives a salt, the structure may show the parent alone.
Could you kindly put the unit after your number?

• Cc1c(N2CC[C@H](N)C2)c(F)cn2c(=O)c(C(=O)O)cc(C3CC3)c12 [Example 2, hydrochloride] = 0.015 µg/mL
• O=C(O)c1cn(C2CC2)c2cc(N3CCNCC3)c(F)cc2c1=O = 0.5 µg/mL
• NC1CCN(c2c(F)cc3c(=O)c(C(=O)O)cn(C4CC4)c3c2Cl)C1 (centres unmarked) = 0.03 µg/mL
• Cc1c(N2C[C@@H]3CCCN[C@@H]3C2)c(F)cn2c(=O)c(C(=O)O)cc(C3CC3)c12 [Example 4, hydrochloride] = 0.002 µg/mL
• C[C@@H]1CN(c2c(F)c(N)c3c(=O)c(C(=O)O)cn(C4CC4)c3c2F)C[C@H](C)N1 = 0.06 µg/mL
• Cc1c(N2C[C@@H](N)C3(CC3)C2)c(F)cn2c(=O)c(C(=O)O)cc(C3CC3)c12 [Example 5, hydrochloride] = 0.015 µg/mL
• N[C@@H]1[C@H]2CN(c3nc4c(cc3F)c(=O)c(C(=O)O)cn4-c3ccc(F)cc3F)C[C@@H]12 = 0.03 µg/mL

Please turn your attention to the following entry.
Need MIC90, item CN[C@@H]1CN(c2c(F)cn3c(=O)c(C(=O)O)cc(C4CC4)c3c2C)CC12CC2 [Example 1, hydrochloride]
0.03 µg/mL

* * *

Tested on: Klebsiella spp.
Assay remarks: In vitro MIC, agar dilution
Assay type: cell-based
Run parameters: Klebsiella spp., 29 isolates; read-out: MIC Range
Structures can show the parent of a compound that is named as a salt.
Observation type: MIC

# count of solved cases: 4
• NC1CCN(c2c(F)cc3c(=O)c(C(=O)O)cn(C4CC4)c3c2Cl)C1 (centres unmarked) = 0.004 to 0.12 µg/mL
• N[C@@H]1[C@H]2CN(c3nc4c(cc3F)c(=O)c(C(=O)O)cn4-c3ccc(F)cc3F)C[C@@H]12 = 0.015 to 0.5 µg/mL
• CN[C@@H]1CN(c2c(F)cn3c(=O)c(C(=O)O)cc(C4CC4)c3c2C)CC12CC2 [Example 1, hydrochloride] = 0.002 to 0.12 µg/mL
• Cc1c(N2C[C@@H](N)C3(CC3)C2)c(F)cn2c(=O)c(C(=O)O)cc(C3CC3)c12 [Example 5, hydrochloride] = 0.002 to 0.12 µg/mL

Need MIC, item "C[C@@H]1CN(c2c(F)c(N)c3c(=O)c(C(=O)O)cn(C4CC4)c3c2F)C[C@H](C)N1"
0.004 to 0.5 µg/mL

* * *

Tested on: M. avium
Assay remarks: In vitro MIC, agar dilution
Format: cell-based
Run parameters: Mycobacterium avium; M. avium, 20 isolates; read-out: MIC90
Counter-ions that a name gives are not always drawn.
# key: entry, value: MIC90
Your answer should be a plain number; it is taken to be in µg/mL.

* CN[C@@H]1CN(c2c(F)cn3c(=O)c(C(=O)O)cc(C4CC4)c3c2C)CC12CC2 [Example 1, hydrochloride] | 4
* Cc1c(N2C[C@@H](N)C3(CC3)C2)c(F)cn2c(=O)c(C(=O)O)cc(C3CC3)c12 [Example 5, hydrochloride] | 2
* N[C@@H]1[C@H]2CN(c3nc4c(cc3F)c(=O)c(C(=O)O)cn4-c3ccc(F)cc3F)C[C@@H]12 | 64

Please turn your attention to the following entry.
Need MIC90, item "C[C@@H]1CN(c2c(F)c(N)c3c(=O)c(C(=O)O)cn(C4CC4)c3c2F)C[C@H](C)N1"
2

* * *

# key: entry, value: MIC
Test system: E. faecium (VanS)
Assay remarks: In vitro MIC, agar dilution
Type: cell-based
Run parameters: Enterococcus faecium, read-out: MIC Range
Where a name gives a salt, the structure may show the parent alone.

# count of solved cases: 5
- NC1CCN(c2c(F)cc3c(=O)c(C(=O)O)cn(C4CC4)c3c2Cl)C1 (stereo not drawn): 0.12 to 1 µg/mL
- Cc1c(N2C[C@@H](N)C3(CC3)C2)c(F)cn2c(=O)c(C(=O)O)cc(C3CC3)c12 [Example 5, hydrochloride]: 0.06 to 0.5 µg/mL
- O=C(O)c1cn(C2CC2)c2cc(N3CCNCC3)c(F)cc2c1=O: 1 to 4 µg/mL
- N[C@@H]1[C@H]2CN(c3nc4c(cc3F)c(=O)c(C(=O)O)cn4-c3ccc(F)cc3F)C[C@@H]12: 0.25 to 4 µg/mL
- CN[C@@H]1CN(c2c(F)cn3c(=O)c(C(=O)O)cc(C4CC4)c3c2C)CC12CC2 [Example 1, hydrochloride]: 0.12 to 1 µg/mL

Please turn your attention to the following entry.
Need MIC, item Cc1c(N2C[C@@H]3CCCN[C@@H]3C2)c(F)cn2c(=O)c(C(=O)O)cc(C3CC3)c12 [Example 4, hydrochloride]
0.12 to 1 µg/mL

* * *

Test system: S. pneumoniae (PenS)
Assay remarks: In vitro MIC, agar dilution
Format: cell-based
Run parameters: Streptococcus pneumoniae, read-out: MIC Range
Where a name gives a salt, the structure may show the parent alone.
Observation type: MIC

# count of solved cases: 3
- C[C@@H]1CN(c2c(F)c(N)c3c(=O)c(C(=O)O)cn(C4CC4)c3c2F)C[C@H](C)N1 [Sparfloxacin, sparfloxacin]: 0.12 to 0.5 mg/L
- N[C@@H]1[C@H]2CN(c3nc4c(cc3F)c(=O)c(C(=O)O)cn4-c3ccc(F)cc3F)C[C@@H]12 [Trovafloxacin, trovafloxacin]: 0.12 to 0.5 mg/L
- O=C(O)c1cn(C2CC2)c2cc(N3CCNCC3)c(F)cc2c1=O [Ciprofloxacin, ciprofloxacin]: 1 to 8 mg/L

Please turn your attention to the following entry.
Reported MIC for S. pneumoniae (PenS), given Cc1c(N2C[C@@H]3CCCN[C@@H]3C2)c(F)cn2c(=O)c(C(=O)O)cc(C3CC3)c12 [Example 4, hydrochloride] ?
0.06 to 0.12 mg/L

* * *

Tested on: E. faecium (VanS)
Assay remarks: In vitro MIC, agar dilution
Format: cell-based
Run parameters: Enterococcus faecium; E. faecium (VanS), 11 isolates; read-out: MIC90
Where a name gives a salt, the structure may show the parent alone.
Observation type: MIC90 (µg/mL)
Your answer should be a plain number; it is taken to be in µg/mL.

# count of solved cases: 3
* CN[C@@H]1CN(c2c(F)cn3c(=O)c(C(=O)O)cc(C4CC4)c3c2C)CC12CC2 [Example 1, hydrochloride] | 1
* N[C@@H]1[C@H]2CN(c3nc4c(cc3F)c(=O)c(C(=O)O)cn4-c3ccc(F)cc3F)C[C@@H]12 | 2
* NC1CCN(c2c(F)cc3c(=O)c(C(=O)O)cn(C4CC4)c3c2Cl)C1 (stereo not shown) | 1

Need MIC90, item "C[C@@H]1CN(c2c(F)c(N)c3c(=O)c(C(=O)O)cn(C4CC4)c3c2F)C[C@H](C)N1"
2

* * *

Tested on: S. epidermidis (CiproR)
Assay remarks: In vitro MIC, agar dilution
Type: cell-based
Run parameters: Staphylococcus epidermidis, read-out: MIC Range
Counter-ions that a name gives are not always drawn.
Observation type: MIC

# count of solved cases: 3
• Cc1c(N2C[C@@H](N)C3(CC3)C2)c(F)cn2c(=O)c(C(=O)O)cc(C3CC3)c12 [Example 5, hydrochloride] = 0.12 to 1 µg/mL
• Cc1c(N2C[C@@H]3CCCN[C@@H]3C2)c(F)cn2c(=O)c(C(=O)O)cc(C3CC3)c12 [Example 4, hydrochloride] = 0.12 to 4 µg/mL
• N[C@@H]1[C@H]2CN(c3nc4c(cc3F)c(=O)c(C(=O)O)cn4-c3ccc(F)cc3F)C[C@@H]12 [Trovafloxacin, trovafloxacin] = 1 to 16 µg/mL

Please turn your attention to the following entry.
Need MIC, item CN[C@@H]1CN(c2c(F)cn3c(=O)c(C(=O)O)cc(C4CC4)c3c2C)CC12CC2 [Example 1, hydrochloride]
0.12 to 2 µg/mL

All values here come from patent US5977133A.
